Assay: Microsomal stability in human liver microsomes assessed as parent compound remaining after 60 mins in presence of NADPH regenerating system by LC-MS/MS analysis
Format: ADME, Microsome
Details: read-out: Stabilty
quantity: remaining at 1 h (%)
Return type: number; implicit unit %.

Q: Identify the reported remaining at 1 h for the following entry. Cc1ccc(-c2cc3occ(CNC4CCNC4)c3cc2-c2ccc(C#N)cc2)cc1 (centres undefined)
Ans: 65.2

Q: Identify the reported remaining at 1 h for the following entry. "CNCCCN(C)Cc1coc2cc(-c3ccc(C)cc3)c(-c3ccc(C#N)cc3)cc12"
Ans: 7.9

Q: Identify the reported remaining at 1 h for the following entry. "Cc1ccc(-c2ncc(OCC3CCNCC3)cc2-c2ccc(C#N)cc2)cc1"
Ans: 67.5

Q: Identify the reported remaining at 1 h for the following entry. "Cc1ccc(-c2cc3occ(CN4CCC[C@H](N)C4)c3cc2-c2ccc(C#N)cc2)cc1"
Ans: 47

---

System: A549
Assay: cells
Settings: Homo sapiens, A549, 72 h
Description: Antiproliferative activity against human A549 cells assessed as reduction in cell viability incubated for 72 hrs by CCK8 assay
Quick list: pIC50 per entry.
Please report pIC50 as the negative decimal logarithm of the molar concentration, giving only the number.

Please review the following examples before continuing.
| molecule | pIC50 |
| --- | --- |
| Cc1ccc(-c2cc3occ(CNCCN)c3cc2-c2ccc(C#N)cc2)cc1 | 5.61 |
| CNCCCN(C)Cc1coc2cc(-c3ccc(C)cc3)c(-c3ccc(C#N)cc3)cc12 | 5.39 |
| Cc1ccc(-c2ncc(OCC3CCNCC3)cc2-c2ccc(C#N)cc2)cc1 | 5.01 |

Q: Identify the reported pIC50 for the following entry. Cc1ccc(-c2cc3occ(CNC4CCNC4)c3cc2-c2ccc(C#N)cc2)cc1 (stereo unspecified)
Ans: 5.26

Q: Identify the reported pIC50 for the following entry. "Cc1ccc(-c2cc3occ(CN4CCC[C@H](N)C4)c3cc2-c2ccc(C#N)cc2)cc1"
Ans: 5.24

Q: Identify the reported pIC50 for the following entry. Cc1ccc(-c2cc3occ(CNC4CCC(N)CC4)c3cc2-c2ccc(C#N)cc2)cc1 (stereo unspecified)
Ans: 5.20

---

Quick list: IC50 per entry.
Tested on: THP-1
Experiment: cells
Conditions: Homo sapiens, THP-1, 72 h
Description: Antiproliferative activity against human THP-1 cells assessed as reduction in cell viability incubated for 72 hrs by CCK8 assay
Return type: number; implicit unit µM.

Please review the following examples before continuing.
| molecule | unit abbrev | IC50 |
| --- | --- | --- |
| Cc1ccc(-c2cc3occ(CN4CCC[C@H](N)C4)c3cc2-c2ccc(C#N)cc2)cc1 | µM | 6.15 |
| Cc1ccc(-c2cc3occ(CNCCN)c3cc2-c2ccc(C#N)cc2)cc1 | µM | 6.68 |
| Cc1ccc(-c2cc3occ(CNC4CCNC4)c3cc2-c2ccc(C#N)cc2)cc1 (stereo unspecified) | µM | 6 |
| CNCCCN(C)Cc1coc2cc(-c3ccc(C)cc3)c(-c3ccc(C#N)cc3)cc12 | µM | 4.87 |
| Cc1ccc(-c2ncc(OCC3CCNCC3)cc2-c2ccc(C#N)cc2)cc1 | µM | 34 |

Q: Identify the reported IC50 for the following entry. Cc1ccc(-c2cc3occ(CNC4CCC(N)CC4)c3cc2-c2ccc(C#N)cc2)cc1 (stereo unspecified)
Ans: 7.06

---

Test: Metabolic stability in human liver microsomes assessed as half-life by LC-MS/MS analysis
Format: ADME, Microsome
Quick list: half-life per entry.
Return type: number; implicit unit min.

Please review the following examples before continuing.
| compound | unit abbrev | measured value |
| --- | --- | --- |
| Cc1ccc(-c2cc3occ(CNC4CCNC4)c3cc2-c2ccc(C#N)cc2)cc1 (stereo not drawn) | min | 94.7 |
| CNCCCN(C)Cc1coc2cc(-c3ccc(C)cc3)c(-c3ccc(C#N)cc3)cc12 | min | 10.1 |

Q: Identify the reported half-life for the following entry. "Cc1ccc(-c2ncc(OCC3CCNCC3)cc2-c2ccc(C#N)cc2)cc1"
Ans: 107

FYI, the data here is from ChEMBL document CHEMBL4825677.
